Entry source: patent US7737136B2

Biological target: human progesterone receptor-B (Homo sapiens, UniProt P06401)
Construct: expressed in transfected cells; host or cells: Chinese hamster ovary (CHO) cells, line CHO-PRB-pMMTV-LUC 1E2-A2
Sequence (P06401 whole entry): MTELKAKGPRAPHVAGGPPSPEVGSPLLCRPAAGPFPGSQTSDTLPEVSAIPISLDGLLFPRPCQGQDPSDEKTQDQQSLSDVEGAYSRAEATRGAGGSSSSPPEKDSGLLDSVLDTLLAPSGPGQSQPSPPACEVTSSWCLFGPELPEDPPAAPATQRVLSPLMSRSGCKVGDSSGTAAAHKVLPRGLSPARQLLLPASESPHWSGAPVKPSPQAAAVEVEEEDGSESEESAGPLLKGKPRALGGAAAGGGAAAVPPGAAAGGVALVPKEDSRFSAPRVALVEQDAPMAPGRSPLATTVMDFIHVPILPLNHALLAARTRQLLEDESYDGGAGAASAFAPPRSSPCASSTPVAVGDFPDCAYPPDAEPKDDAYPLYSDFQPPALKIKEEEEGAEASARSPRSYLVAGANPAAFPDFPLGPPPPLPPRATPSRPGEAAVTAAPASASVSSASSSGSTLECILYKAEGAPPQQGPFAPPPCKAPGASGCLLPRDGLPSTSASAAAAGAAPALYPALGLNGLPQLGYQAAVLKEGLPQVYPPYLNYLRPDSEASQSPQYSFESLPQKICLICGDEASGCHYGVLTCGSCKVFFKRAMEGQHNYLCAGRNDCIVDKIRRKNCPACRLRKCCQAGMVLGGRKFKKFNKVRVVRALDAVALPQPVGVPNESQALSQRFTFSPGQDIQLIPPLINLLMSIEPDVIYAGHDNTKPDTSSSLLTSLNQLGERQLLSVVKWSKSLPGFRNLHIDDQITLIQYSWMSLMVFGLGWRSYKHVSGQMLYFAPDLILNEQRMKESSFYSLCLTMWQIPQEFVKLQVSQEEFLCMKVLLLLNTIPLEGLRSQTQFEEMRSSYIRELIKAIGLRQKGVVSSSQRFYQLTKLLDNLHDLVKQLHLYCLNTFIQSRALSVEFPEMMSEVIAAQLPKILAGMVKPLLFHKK
Assay: Progesterone receptor-B transactivation assay, progestagenic (agonist) activity, CHO-PRB-pMMTV-LUC 1E2-A2 cells
Assay type: cell-based
Conditions: CHO cells stably transfected with human progesterone receptor-B and MMTV-luciferase reporter; read-out: Progestagenic activity EC50
pEC50: −log10 of the molar value.
Below, each entry is listed alongside its reported pEC50.

Examples with answers:
molecule	readout_label	result
N#Cc1ccc2c(c1)Oc1ccc(Cl)cc1N1CCC[C@H](NC(=O)C(F)(F)F)[C@@H]21 (relative stereo)	pEC50	7.00 to 8.00
COc1cccc2c1N1CCC[C@H](NC(=O)C(F)(F)F)[C@H]1c1ccccc1O2 (relative stereo)	pEC50	7.00 to 8.00
NCC(=O)N[C@H]1CCCN2c3cc(Cl)ccc3Oc3ccccc3[C@H]12 (relative stereo)	pEC50	5.00 to 7.00

// O=C(N[C@H]1CCCN2c3cc(Br)ccc3Oc3ccccc3[C@H]12)C(F)(F)F (relative stereo) : pEC50 value = > 8.00

// N[C@H]1CCCN2c3cc(Cl)ccc3Oc3ccccc3[C@H]12 (relative stereo) : pEC50 value = 5.00 to 7.00

// FC(F)(F)C(=S)N[C@H]1CCCN2c3c(ccc(Cl)c3Cl)Oc3ccccc3[C@H]12 (relative stereo) : pEC50 value = > 8.00

// FC(F)C(=S)N[C@H]1CCCN2c3cc(Cl)ccc3Oc3ccccc3[C@H]12 (relative stereo) : pEC50 value = > 8.00

// NCC(=S)N[C@H]1CCCN2c3cc(Cl)ccc3Oc3ccccc3[C@H]12 (relative stereo) : pEC50 value = 5.00 to 7.00

// C=Cc1cc(F)cc2c1N1CCC[C@H](NC(=O)C(F)(F)F)[C@H]1c1ccccc1O2 (relative stereo) : pEC50 value = > 8.00

###

Molecular target: human progesterone receptor-B (Homo sapiens)
Construct: expressed in transfected cells; host or cells: Chinese hamster ovary (CHO) cells, line CHO-PRB-pMMTV-LUC 1E2-A2
Assay: Progesterone receptor-B transactivation assay, progestagenic (agonist) activity, CHO-PRB-pMMTV-LUC 1E2-A2 cells
Format: cell-based
Details: CHO cells stably transfected with human progesterone receptor-B and MMTV-luciferase reporter; read-out: Progestagenic activity EC50
Below, each entry is listed alongside its reported EC50.

molecule	assayed_system	result
FC(F)(F)C(=S)N[C@H]1CCCN2c3cc(Cl)ccc3Oc3ccccc3[C@H]12 (relative stereo)	human progesterone receptor-B (Homo sapiens)	< 10 nM
O=C(N[C@H]1CCCN2c3cc(Cl)ccc3Oc3ccccc3[C@H]12)C(F)F	human progesterone receptor-B (Homo sapiens)	10 to 100 nM
CC(=S)N[C@H]1CCCN2c3cc(Cl)ccc3Oc3ccccc3[C@H]12 (relative stereo)	human progesterone receptor-B (Homo sapiens)	10 to 100 nM
O=C(N[C@H]1CCCN2c3c(Br)cc(F)cc3Oc3ccccc3[C@H]12)C(F)(F)F (relative stereo)	human progesterone receptor-B (Homo sapiens)	100 to 10000 nM
O=C(N[C@H]1CCCN2c3cc(Cl)ccc3Oc3cc(Br)ccc3[C@H]12)C(F)(F)F (relative stereo)	human progesterone receptor-B (Homo sapiens)	10 to 100 nM
N=C(N[C@H]1CCCN2c3cc(Cl)ccc3Oc3ccccc3[C@H]12)C(F)(F)F (relative stereo)	human progesterone receptor-B (Homo sapiens)	10 to 100 nM

Let's switch to this molecule now.
human progesterone receptor-B (Homo sapiens) data for C=Cc1cccc2c1N1CCC[C@H](NC(=O)C(F)(F)F)[C@H]1c1ccccc1O2 (relative stereo) ; its EC50: < 10 nM
